MIC values for the compounds below.
System: A. baumannii
Assay: MIC broth microdilution (CLSI)
Assay type: cell-based
Details: Acinetobacter baumannii, read-out: Activity (MIC), strain NABA1448, MDR Clinical isolate
Method: Minimum inhibitory concentrations for representative example compounds herein were determined by a broth microdilution method in accordance with the Clinical and Laboratory Standards Institute (CLSI) guidelines. […] Bacteria were suspended in sterile saline and added to each assay plate to obtain a final concentration of 5×10^5 CFU/mL. […] Following incubation, the lowest concentration of the compound that prevented visible growth (OD 600 nm<0.05) is recorded was the MIC. […]
Property name: MIC

• NC[C@@H]1CC[C@@H](N)[C@@H](O[C@@H]2[C@@H](N)[C@H](O)[C@@H](NC(=O)[C@@H](O)[C@H](F)CN)[C@H](O)[C@H]2O[C@@H]2O[C@H](CO)[C@@H](O[C@H]3O[C@@H](CN)[C@@H](O)[C@H](O)[C@H]3N)[C@H]2O)O1 [Compound 1] = < 16 µg/mL
• C[C@H](N)[C@@H]1CC[C@@H](N)[C@@H](O[C@@H]2[C@@H](N)[C@H](O)[C@@H](NC(=O)[C@@H](O)[C@H](F)CN)[C@H](O)[C@H]2O[C@@H]2O[C@H](CO)[C@@H](O[C@H]3O[C@@H](CN)[C@@H](O)[C@H](O)[C@H]3N)[C@H]2O)O1 [Compound 3] = < 16 µg/mL
• NCC[C@H](O)C(=O)N[C@@H]1[C@@H](O)[C@H](N)[C@@H](O[C@H]2O[C@H](CN)CC[C@H]2N)[C@H](O[C@@H]2O[C@H](CO)[C@@H](O[C@H]3O[C@@H](CN)[C@@H](O)[C@H](O)[C@H]3N)[C@H]2O)[C@H]1O [Compound 2] = < 16 µg/mL
• C[C@H](N)[C@@H]1CC[C@@H](N)[C@@H](O[C@@H]2[C@@H](N)[C@H](O)[C@@H](NC(=O)[C@@H](O)CCN)[C@H](O)[C@H]2O[C@@H]2O[C@H](CO)[C@@H](O[C@H]3O[C@@H](CN)[C@@H](O)[C@H](O)[C@H]3N)[C@H]2O)O1 [Compound 6] = < 16 µg/mL
